system: A549; test: MTT assay, A549; assay type: cell-based, human; conditions: Homo sapiens, A549, 48 h, lung adenocarcinoma, 48 h incubation
pIC50: −log10 of the molar value.
Reported Metric: pIC50

Respectfully, I request pIC50 for each entry included below.
1. O=C(COc1ccc(/C=C2\SC(=O)N(Cc3cccc4cc5ccccc5nc34)C2=O)cc1)Nc1ccccc1C(F)(F)F [Compound 8e]
2. COc1cc(NC(=O)COc2ccc(/C=C3\SC(=O)N(Cc4c5ccccc5nc5ccccc45)C3=O)cc2)cc(OC)c1 [Compound 7b]
3. O=C(COc1ccc(/C=C2\SC(=O)N(Cc3cccc4cc5ccccc5nc34)C2=O)cc1)Nc1ccc([N+](=O)[O-])cc1 [Compound 8d]
4. COc1cc(NC(=O)COc2ccc(/C=C3\SC(=O)N(Cc4cccc5cc6ccccc6nc45)C3=O)cc2)cc(OC)c1OC [Compound 8c]
5. COc1cc(/C=C2\SC(=O)N(Cc3c4ccccc4nc4ccccc34)C2=O)ccc1OCC(=O)Nc1ccccc1 [Compound 12a]

### Response
< 4.30
4.46
< 4.30
< 4.30
< 4.30

====

I'd appreciate it if you could supply IC50 values for the items below.
test system: A2058; experiment: MTT assay, A2058; format: cell-based; details: Homo sapiens, A2058, 48 h, human melanoma, 48 h incubation

The following compounds have reported results that may help.
1) COc1cc(NC(=O)COc2ccc(/C=C3\SC(=O)N(Cc4c5ccccc5nc5ccccc45)C3=O)cc2OC)cc(OC)c1 [Compound 12b] :: > 50 µM
2) O=C(COc1ccc(/C=C2\SC(=O)N(Cc3c4ccccc4nc4ccccc34)C2=O)cc1)Nc1cc(C(F)(F)F)cc(C(F)(F)F)c1 :: > 50 µM
3) COc1cc(/C=C2\SC(=O)N(Cc3c4ccccc4nc4ccccc34)C2=O)ccc1OCC(=O)Nc1cc(C(F)(F)F)cc(C(F)(F)F)c1 [Compound 12g] :: > 50 µM
4) COc1cc(/C=C2\SC(=O)N(Cc3cccc4cc5ccccc5nc34)C2=O)ccc1OCC(=O)Nc1ccccc1C(F)(F)F [Compound 13e] :: 35.2 µM
5) COc1cc(NC(=O)COc2ccc(/C=C3\SC(=O)N(Cc4cccc5cc6ccccc6nc45)C3=O)cc2)cc(OC)c1OC :: > 50 µM

Respectfully, I request IC50 for each entry included below.
1. COc1cc(/C=C2\SC(=O)N(Cc3c4ccccc4nc4ccccc34)C2=O)ccc1OCC(=O)Nc1cc(OC)c(OC)c(OC)c1 [Compound 12c]
2. O=C(COc1ccc(/C=C2\SC(=O)N(Cc3cccc4cc5ccccc5nc34)C2=O)cc1)Nc1ccccc1

### Response
1: > 50 µM; 2: > 50 µM

====

biological target: bovine serum albumin (BSA) (Bos taurus); construct: purchased Sigma-Aldrich; assay: BSA fluorescence quenching (Stern–Volmer); format: binding; details: kq = Ksv/τ0, τ0 = 10^−8 s; BSA, pH 7.4, 24 °C
Sequence (P02769 25-607): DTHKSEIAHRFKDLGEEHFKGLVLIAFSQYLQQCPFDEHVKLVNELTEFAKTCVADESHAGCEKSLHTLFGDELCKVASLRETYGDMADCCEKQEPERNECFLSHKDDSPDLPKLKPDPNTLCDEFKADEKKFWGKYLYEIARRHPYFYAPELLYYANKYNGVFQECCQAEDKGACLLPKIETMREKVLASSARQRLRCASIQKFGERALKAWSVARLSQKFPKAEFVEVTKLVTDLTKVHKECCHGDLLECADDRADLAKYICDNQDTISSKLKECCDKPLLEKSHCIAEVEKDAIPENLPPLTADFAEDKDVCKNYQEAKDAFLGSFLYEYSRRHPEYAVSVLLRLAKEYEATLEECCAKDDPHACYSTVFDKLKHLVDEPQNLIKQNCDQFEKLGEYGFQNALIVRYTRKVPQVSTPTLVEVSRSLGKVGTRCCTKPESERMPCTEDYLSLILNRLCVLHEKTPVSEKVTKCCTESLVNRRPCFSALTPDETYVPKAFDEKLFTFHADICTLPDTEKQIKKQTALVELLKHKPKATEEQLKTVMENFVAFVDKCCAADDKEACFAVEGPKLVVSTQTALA
I'd appreciate it if you could supply bimolecular quenching rate constant kq values for the items below.

1. Cl.Cl.O=C(COc1ccc(/C=C2\SC(=O)N(Cc3c4ccccc4nc4ccccc34)C2=O)cc1)Nc1ccccc1C(F)(F)F [Compound 7e·2HCl] :: 10.74 × 10^12 [M^−1·s^−1]
2. COc1cc(/C=C2\SC(=O)N(Cc3c4ccccc4nc4ccccc34)C2=O)ccc1OCC(=O)Nc1ccc([N+](=O)[O-])cc1.Cl.Cl [12d·2HCl] :: 10.47 × 10^12 [M^−1·s^−1]
3. COc1cc(/C=C2\SC(=O)N(Cc3cccc4cc5ccccc5nc34)C2=O)ccc1OCC(=O)Nc1cc(OC)c(OC)c(OC)c1.Cl [13c·HCl] :: 10.58 × 10^12 [M^−1·s^−1]

Measured on bovine serum albumin (BSA) (Bos taurus), COc1cc(/C=C2\SC(=O)N(Cc3cccc4cc5ccccc5nc34)C2=O)ccc1OCC(=O)Nc1ccc([N+](=O)[O-])cc1 [Compound 13d] has a documented bimolecular quenching rate constant kq of 9.59 × 10^12 [M^−1·s^−1]

Every entry's value here was drawn from paper PMC11280325.
